- System: LXRa homodimer (NR concentration 270 nM)
- experiment-summary: PBM binding z-score (relative to random genomic background probes); higher = stronger binding; sequences stand for … in GC…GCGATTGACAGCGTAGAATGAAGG
Decision: PBM binding z-score compared against 2; not below it gives yes (1), below it gives no (0).

Solved entries (count: 2):
[
  {
    "macromolecule-sequence": "CCGAGTAGGTTACGAGTGGGCATTCAGTGCGAAT",
    "group": "no (0)"
  },
  {
    "macromolecule-sequence": "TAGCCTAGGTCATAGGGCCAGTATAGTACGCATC",
    "group": "no (0)"
  }
]

Tell me whether PBM binding z-score is at least 2 here: `CGTCAAAGTTCAAGGTAAAGTAACAGAAAGCAGC`
yes (1)

----------
- Test system: PXR homodimer (NR concentration 270 nM)
- experiment-summary: PBM binding z-score (relative to random genomic background probes); higher = stronger binding; sequences stand for … in GC…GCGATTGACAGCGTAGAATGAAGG
We use 0.2 as the dividing line for PBM binding z-score: on or above the line is Y, below is N.

[
  {
    "macromolecule-sequence": "ACTTACGGGTCAAGGAGGTTATAGCACGCGTATA",
    "group": "Y"
  },
  {
    "macromolecule-sequence": "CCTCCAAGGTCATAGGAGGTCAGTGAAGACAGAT",
    "group": "Y"
  },
  {
    "macromolecule-sequence": "CCGACTTGGGCAAAGGTTACCATACTCAGTACGA",
    "group": "N"
  }
]

In plain terms: is recorded PBM binding z-score at least 0.2 for `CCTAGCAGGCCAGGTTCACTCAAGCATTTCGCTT` ?
Y

Would you kindly repeat that for `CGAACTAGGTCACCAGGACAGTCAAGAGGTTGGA` ?
N

And the next one, `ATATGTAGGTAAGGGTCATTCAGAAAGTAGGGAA` ?
Y

Try this sequence next: `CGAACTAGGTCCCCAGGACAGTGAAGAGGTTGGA`
N

Entry to check: `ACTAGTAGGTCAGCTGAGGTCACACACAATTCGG`
Y

# repeat for `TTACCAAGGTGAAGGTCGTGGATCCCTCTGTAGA`
N

----------
- System: PXR homodimer (NR concentration 270 nM)
- experiment-summary: PBM binding z-score (relative to random genomic background probes); higher = stronger binding; sequences stand for … in GC…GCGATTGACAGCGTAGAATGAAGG
PBM binding z-score values by entry
Hey, just send me the number, nothing else.

Recorded PBM binding z-score, per entry:
[
  {
    "macromolecule-sequence": "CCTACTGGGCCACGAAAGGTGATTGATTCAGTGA",
    "assay-system": "PXR homodimer (NR concentration 270 nM)",
    "PBM binding z-score": -0.433
  },
  {
    "macromolecule-sequence": "CAAACTAGGTCACGAAAGGTCAAAATCGAATGAC",
    "assay-system": "PXR homodimer (NR concentration 270 nM)",
    "PBM binding z-score": 3.06
  },
  {
    "macromolecule-sequence": "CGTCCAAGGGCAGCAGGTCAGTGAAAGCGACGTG",
    "assay-system": "PXR homodimer (NR concentration 270 nM)",
    "PBM binding z-score": -0.825
  },
  {
    "macromolecule-sequence": "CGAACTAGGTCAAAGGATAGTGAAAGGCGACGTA",
    "assay-system": "PXR homodimer (NR concentration 270 nM)",
    "PBM binding z-score": -0.152
  }
]

Please report the recorded PBM binding z-score for `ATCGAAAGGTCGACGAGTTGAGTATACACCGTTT` .
1.84

What do you get for `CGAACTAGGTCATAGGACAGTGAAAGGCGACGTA` ?
-0.212

----------
Overview of reported PBM binding z-score across a group of sequences:
- System: RXRa homodimer (NR concentration 180 nM)
- experiment-summary: PBM binding z-score (relative to random genomic background probes); higher = stronger binding; sequences stand for … in GC…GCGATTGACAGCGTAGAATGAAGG
Format: numeric value only, no unit, no commentary.

[
  {
    "macromolecule-sequence": "CTCGAAAGGTCGTGCTCAGGTGAGTACACCAAAC",
    "recorded-measurement": 5.63
  },
  {
    "macromolecule-sequence": "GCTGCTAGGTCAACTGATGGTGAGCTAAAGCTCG",
    "recorded-measurement": 2.69
  },
  {
    "macromolecule-sequence": "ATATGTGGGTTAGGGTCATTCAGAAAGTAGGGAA",
    "recorded-measurement": 5.55
  },
  {
    "macromolecule-sequence": "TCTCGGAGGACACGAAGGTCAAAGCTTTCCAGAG",
    "recorded-measurement": 3.26
  },
  {
    "macromolecule-sequence": "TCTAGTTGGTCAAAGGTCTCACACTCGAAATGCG",
    "recorded-measurement": 1.98
  },
  {
    "macromolecule-sequence": "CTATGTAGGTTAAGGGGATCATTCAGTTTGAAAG",
    "recorded-measurement": 1.12
  }
]

Turning to the following sequence.
Given the sequence `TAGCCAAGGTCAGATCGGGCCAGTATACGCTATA` , what is its reported PBM binding z-score?
3.58

----------
Quick list: PBM binding z-score per entry.
- Tested on: FXR:RXRa (NR concentration 270 nM, RXRa partner concentration 90 nM)
- experiment-summary: PBM binding z-score (relative to random genomic background probes); higher = stronger binding; sequences stand for … in GC…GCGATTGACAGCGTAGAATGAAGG

[
  {
    "macromolecule-sequence": "GCTGCTAGGTCATGTTGGTCAGCTAACGGGTACG",
    "recorded-measurement": 3.46
  },
  {
    "macromolecule-sequence": "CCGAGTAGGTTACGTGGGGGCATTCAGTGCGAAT",
    "recorded-measurement": 2.27
  },
  {
    "macromolecule-sequence": "TGAATGAGGTTAAAGGTCAGGGAACGTGGCGTCG",
    "recorded-measurement": 7.23
  },
  {
    "macromolecule-sequence": "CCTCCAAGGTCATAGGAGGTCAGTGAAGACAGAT",
    "recorded-measurement": 7.3
  },
  {
    "macromolecule-sequence": "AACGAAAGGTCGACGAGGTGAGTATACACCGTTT",
    "recorded-measurement": 4.99
  },
  {
    "macromolecule-sequence": "CCGAGTAGGTTACGCGGGGGCATTCAGTGCGAAT",
    "recorded-measurement": 3.18
  }
]

What value of PBM binding z-score has been recorded for this entry: `CGAACTAGGTCAAAGTACAGTGAAAGGCGACGTA`
4.69

Now the same for `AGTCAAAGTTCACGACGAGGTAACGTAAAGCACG`
7.08

----------
- Test system: VDR homodimer (NR concentration 270 nM)
- experiment-summary: PBM binding z-score (relative to random genomic background probes); higher = stronger binding; sequences stand for … in GC…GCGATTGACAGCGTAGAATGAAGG
Below: a set of entries, each annotated with reported PBM binding z-score.
Reply with the value as a number alone.

The cases that follow already have their PBM binding z-score on record.
[
  {
    "macromolecule-sequence": "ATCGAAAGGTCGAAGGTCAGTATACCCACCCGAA",
    "assay-system": "VDR homodimer (NR concentration 270 nM)",
    "PBM binding z-score": 1.51
  },
  {
    "macromolecule-sequence": "TTTAGTTGGTCAAAGGTCACACACTCGAAATGCG",
    "assay-system": "VDR homodimer (NR concentration 270 nM)",
    "PBM binding z-score": 2.6
  },
  {
    "macromolecule-sequence": "CGAACTAGGTCACCAAGACAGTGAAGAGGTTGGA",
    "assay-system": "VDR homodimer (NR concentration 270 nM)",
    "PBM binding z-score": 0.496
  },
  {
    "macromolecule-sequence": "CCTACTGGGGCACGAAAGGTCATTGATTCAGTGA",
    "assay-system": "VDR homodimer (NR concentration 270 nM)",
    "PBM binding z-score": 2.34
  },
  {
    "macromolecule-sequence": "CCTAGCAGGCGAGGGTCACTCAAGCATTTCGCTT",
    "assay-system": "VDR homodimer (NR concentration 270 nM)",
    "PBM binding z-score": 0.128
  }
]

Next, consider the following sequence.
Which PBM binding z-score reading was recorded for the sequence `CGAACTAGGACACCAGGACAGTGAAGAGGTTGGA` ?
0.472

----------
- Test system: PPARg:RXRa 90nM:30nM, anti-RXR (NR concentration 90 nM, RXRa partner concentration 30 nM)
- experiment-summary: PBM binding z-score (relative to random genomic background probes); higher = stronger binding; sequences stand for … in GC…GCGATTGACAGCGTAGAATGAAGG
property-label: PBM binding z-score
Form field (numeric): enter value without unit.

Below, 3 sequences whose answers are already recorded.
[
  {
    "macromolecule-sequence": "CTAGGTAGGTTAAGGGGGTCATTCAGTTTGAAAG",
    "PBM binding z-score": 5.95
  },
  {
    "macromolecule-sequence": "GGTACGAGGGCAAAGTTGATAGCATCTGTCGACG",
    "PBM binding z-score": 6.02
  },
  {
    "macromolecule-sequence": "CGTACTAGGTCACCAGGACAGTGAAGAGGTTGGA",
    "PBM binding z-score": 5.83
  }
]

Could you now look at the following sequence, please?
Returns the measured PBM binding z-score for the input sequence. Input: `ATATGTAGGTTAGGGTCATTCTGAAAGTAGGGAA`
5.9

Hello, the source for this data is the supplement of paper PMC6555819, in case you need it.
